Target: UniProt:P0A0K8
Sequence (P0A0K8 whole entry): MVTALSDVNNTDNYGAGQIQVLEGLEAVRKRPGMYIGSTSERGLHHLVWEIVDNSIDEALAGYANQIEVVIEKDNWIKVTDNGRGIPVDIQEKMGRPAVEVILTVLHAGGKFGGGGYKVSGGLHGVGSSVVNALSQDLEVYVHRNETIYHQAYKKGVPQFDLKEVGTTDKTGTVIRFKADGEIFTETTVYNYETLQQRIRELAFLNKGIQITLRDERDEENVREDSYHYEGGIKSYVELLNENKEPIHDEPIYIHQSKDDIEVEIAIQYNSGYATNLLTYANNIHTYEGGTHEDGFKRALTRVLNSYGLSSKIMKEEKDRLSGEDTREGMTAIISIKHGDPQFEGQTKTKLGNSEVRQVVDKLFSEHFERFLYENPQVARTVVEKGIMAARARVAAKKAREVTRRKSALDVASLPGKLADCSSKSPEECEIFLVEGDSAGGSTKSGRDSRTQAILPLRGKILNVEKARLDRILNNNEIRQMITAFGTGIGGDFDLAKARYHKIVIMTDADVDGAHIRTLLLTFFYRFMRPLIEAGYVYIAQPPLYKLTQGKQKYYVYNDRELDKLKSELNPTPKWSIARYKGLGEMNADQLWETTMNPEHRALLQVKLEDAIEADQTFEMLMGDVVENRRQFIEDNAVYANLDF
Sequence (P0AES4 whole entry, further chain): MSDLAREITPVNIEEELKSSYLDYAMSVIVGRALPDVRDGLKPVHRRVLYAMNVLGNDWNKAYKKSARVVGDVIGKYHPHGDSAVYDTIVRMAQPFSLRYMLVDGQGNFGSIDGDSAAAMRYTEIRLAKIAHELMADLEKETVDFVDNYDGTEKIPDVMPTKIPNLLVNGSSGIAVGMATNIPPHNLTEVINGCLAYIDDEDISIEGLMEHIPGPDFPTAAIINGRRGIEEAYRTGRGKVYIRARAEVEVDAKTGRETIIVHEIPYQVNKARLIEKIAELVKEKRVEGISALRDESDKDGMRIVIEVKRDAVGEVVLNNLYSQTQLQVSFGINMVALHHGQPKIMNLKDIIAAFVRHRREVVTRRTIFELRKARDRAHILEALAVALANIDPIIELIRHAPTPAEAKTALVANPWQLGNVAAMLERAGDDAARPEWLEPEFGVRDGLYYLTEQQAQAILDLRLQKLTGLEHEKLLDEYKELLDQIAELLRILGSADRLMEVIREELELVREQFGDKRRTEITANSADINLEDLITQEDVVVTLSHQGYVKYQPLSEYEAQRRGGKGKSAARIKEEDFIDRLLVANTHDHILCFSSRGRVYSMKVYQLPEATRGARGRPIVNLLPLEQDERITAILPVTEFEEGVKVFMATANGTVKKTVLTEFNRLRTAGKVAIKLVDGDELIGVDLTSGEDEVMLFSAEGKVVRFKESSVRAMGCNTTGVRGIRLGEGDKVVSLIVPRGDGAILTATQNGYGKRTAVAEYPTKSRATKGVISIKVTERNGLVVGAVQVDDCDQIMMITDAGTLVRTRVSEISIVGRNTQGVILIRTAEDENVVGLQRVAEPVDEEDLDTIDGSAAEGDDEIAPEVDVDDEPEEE
Assay: S. aureus (SAU) GyrB ATPase inhibition, malachite green phosphate detection (E. coli GyrA + S. aureus GyrB)
Type: biochemical
Details: compound concentration of 1.0 μM unless otherwise noted; average value where assay was carried out more than once; read-out: S. aureus (SAU) GyrB ATPase % Inhibition
Method: Compounds were tested for inhibition of GyrB ATPase activity using an ammonium molybdate/malachite green-based phosphate detection assay (Lanzetta, P. A., L. J. Alvarez, P. S. Reinach, and O. A. Candia, 1979, 100: 95-97). […] Compound potency was based on IC50 measurements determined from reactions performed in the presence of 10 different compound concentrations.
Reported inhibition at 1 µM values follow for various molecules
The answer is to be given in %; state only the numeric part.

Study these solved cases before continuing.
CCNC(=O)Nc1cc(-c2nc(C(F)(F)F)cs2)c(-c2cncc(-c3nnc(COCc4ccccc4)o3)c2)cn1: 98
CCNC(=O)Nc1cc(-c2nc(C3CCCCC3)cs2)c(-c2cncc(-c3n[nH]c(=O)o3)c2)cn1: 109
CCNC(=O)Nc1cc(-c2nc(C(F)(F)F)c(C(=O)NCCN3CCOCC3)s2)c(-c2cncc(-c3n[nH]c(=O)o3)c2)cn1: 95

Lookup: Look at this molecule and give its reported inhibition at 1 µM. CCNC(=O)Nc1cc(-c2nc(C(F)(F)F)cs2)c(-c2cncc(-c3nnc(CN(C)C)o3)c2)cn1
Found: 98

Lookup: Given the molecule CCNC(=O)Nc1cc(-c2nc(C(F)(F)F)cs2)c(-c2cc(-c3n[nH]c(=O)o3)cnc2OC2CC(C)(C)N(C)C(C)(C)C2)cn1 , what is its reported inhibition at 1 µM?
Found: 99

Lookup: Param item = CCNC(=O)Nc1cc(-c2nc(C(F)(F)F)cs2)c(-c2cncc(-c3nnc(C(C)(C)OC(C)=O)o3)c2)cn1 ; retrieve measured inhibition at 1 µM.
Found: 98

Lookup: inhibition at 1 µM lookup needed for CCNC(=O)Nc1cc(-c2nc(C(F)(F)F)c(C(=O)NCCN3CCN(C)CC3)s2)c(-c2cncc(-c3n[nH]c(=O)o3)c2)cn1 , thanks.
Found: 96
